cell viability: recorded values
# System: DLD1
# MEASUREMENT_DESCRIPTION: cell viability (CellTiter-Glo) relative to plate median (fraction of plate median); higher = more viable cells
# CONDITION_SUMMARY: 5 µM; treatment time 24 h; reporter: 7TFP
Enter a number only.

# annotated cases, reported cell viability shown
MOLECULE	OBSERVED_PROPERTY	RESULT
CC[C@H](/C=C/[C@@H](C)[C@H]1CC[C@H]2[C@@H]3CCC4=CC(=O)CC[C@]4(C)[C@H]3CC[C@]12C)C(C)C	cell viability	0.999
CC(C)=CCC/C(C)=C\CO	cell viability	0.992
NS(=O)(=O)c1cc(C2(O)NC(=O)c3ccccc32)ccc1Cl (configuration not stated)	cell viability	1.02
CC(C)NCC(O)c1ccc(O)c(O)c1 (configuration not stated)	cell viability	0.963
CCN[C@@H]1C[C@H](N)[C@@H](O[C@H]2OC(CN)=CC[C@H]2N)[C@H](O)[C@H]1O[C@H]1OC[C@](C)(O)[C@H](NC)[C@H]1O	cell viability	0.992

Query the reported cell viability for DLD1; item: C/C=C/C=C/C1C=CC2CC(C)CCC2C1(C)/C(O)=C1/C(=O)NC(C(C)O)C1=O (configuration not stated)
1

Query the reported cell viability for DLD1; item: O=c1cc(-c2cccc(O)c2)oc2ccc(O)cc12
1.05

Query the reported cell viability for DLD1; item: Nc1ccc(S(=O)(=O)NC(=O)c2ccccc2)cc1
1.07

Query the reported cell viability for DLD1; item: CC1(C)CC[C@]2(C(=O)O)[C@H](O)C[C@]3(C)C(=CC[C@@H]4[C@@]5(C)CC[C@H](O)C(C)(C)[C@@H]5CC[C@]43C)[C@H]2C1
0.908

Query the reported cell viability for DLD1; item: CC(=O)c1oc2cc3[nH]c(=O)cc(C)c3cc2c1C [2-Acetyl-3,5-dimethylfuro[3,2-g]quinolin-7-one (VFT-05)]
0.844

Query the reported cell viability for DLD1; item: C[N+](C)(C)CC(=O)O
0.997

Query the reported cell viability for DLD1; item: COc1c(O)cc2c(c1O)[C@@H]1O[C@H](CO)[C@@H](O)[C@H](O)[C@H]1OC2=O
0.966

Query the reported cell viability for DLD1; item: CC(C)C[C@H](NC(=O)[C@@H]1CCCN1)C(=O)N1CCNC(=O)C1=O
1.02

Query the reported cell viability for DLD1; item: OC(CCN1CCCCC1)(c1ccccc1)C1CC2C=CC1C2 (configuration not stated)
0.914

Query the reported cell viability for DLD1; item: CC(=O)O[C@H]1CC[C@]2(C)C3=CC(=O)[C@@]4(C)C(C[C@@H]5OC6(OCC(C)CC6Br)[C@@H](C)[C@@H]54)C3CC[C@H]2C1 (some centres not stated)
1.04

Query the reported cell viability for DLD1; item: COc1ccc(-c2cc(=O)c3c(OC)c(OC)c(OC)c(OC)c3o2)cc1
1

Query the reported cell viability for DLD1; item: COc1ccc2c(c1)[C@@]1(C)CCC(=O)C[C@H]1CC2
0.998

----------
cell viability: recorded values
# System: HCT116
# MEASUREMENT_DESCRIPTION: cell viability (CellTiter-Glo) relative to plate median (fraction of plate median); higher = more viable cells
# CONDITION_SUMMARY: 5 µM; treatment time 24 h; reporter: TCF4/Wnt

# annotated cases, reported cell viability shown
STRUCTURE_AS_SMILES	cell viability
Nc1ccc(C(=O)NCC(=O)O)cc1	0.962
CN[C@H](CC(C)C)C(=O)N[C@H]1C(=O)N[C@@H](CC(N)=O)C(=O)N[C@H]2C(=O)N[C@H]3C(=O)N[C@H](C(=O)N[C@H](C(=O)O)c4cc(O)cc(O)c4-c4cc3ccc4O)[C@H](O)c3ccc(c(Cl)c3)Oc3cc2cc(c3O[C@@H]2O[C@H](CO)[C@@H](O)[C@H](O)[C@H]2O[C@H]2C[C@](C)(N)[C@H](O)[C@H](C)O2)Oc2ccc(cc2Cl)[C@H]1O	1.01
CC1(C)O[C@@H]2C[C@H]3[C@@H]4C[C@H](F)C5=CC(=O)CC[C@]5(C)[C@H]4[C@@H](O)C[C@]3(C)[C@]2(C(=O)CO)O1	1.02
O=C(O)CCCCCCCCCCCC[C@@H]1C=CCC1	1.03
Nc1ccc(S(=O)(=O)NC(=O)c2ccccc2)cc1	0.954

Query the reported cell viability for HCT116; item: CC1=NN(c2ccccc2)C(=O)C1
0.921

Query the reported cell viability for HCT116; item: CNCC[C@@H](Oc1ccccc1C)c1ccccc1
0.941

Query the reported cell viability for HCT116; item: COc1ccc2c(c1)c(CC(=O)O)c(C)n2C(=O)c1ccc(Cl)cc1
0.785
